Target: Scl-70 (UniProt P11387)
Sequence (P11387 2-765 limits assumed): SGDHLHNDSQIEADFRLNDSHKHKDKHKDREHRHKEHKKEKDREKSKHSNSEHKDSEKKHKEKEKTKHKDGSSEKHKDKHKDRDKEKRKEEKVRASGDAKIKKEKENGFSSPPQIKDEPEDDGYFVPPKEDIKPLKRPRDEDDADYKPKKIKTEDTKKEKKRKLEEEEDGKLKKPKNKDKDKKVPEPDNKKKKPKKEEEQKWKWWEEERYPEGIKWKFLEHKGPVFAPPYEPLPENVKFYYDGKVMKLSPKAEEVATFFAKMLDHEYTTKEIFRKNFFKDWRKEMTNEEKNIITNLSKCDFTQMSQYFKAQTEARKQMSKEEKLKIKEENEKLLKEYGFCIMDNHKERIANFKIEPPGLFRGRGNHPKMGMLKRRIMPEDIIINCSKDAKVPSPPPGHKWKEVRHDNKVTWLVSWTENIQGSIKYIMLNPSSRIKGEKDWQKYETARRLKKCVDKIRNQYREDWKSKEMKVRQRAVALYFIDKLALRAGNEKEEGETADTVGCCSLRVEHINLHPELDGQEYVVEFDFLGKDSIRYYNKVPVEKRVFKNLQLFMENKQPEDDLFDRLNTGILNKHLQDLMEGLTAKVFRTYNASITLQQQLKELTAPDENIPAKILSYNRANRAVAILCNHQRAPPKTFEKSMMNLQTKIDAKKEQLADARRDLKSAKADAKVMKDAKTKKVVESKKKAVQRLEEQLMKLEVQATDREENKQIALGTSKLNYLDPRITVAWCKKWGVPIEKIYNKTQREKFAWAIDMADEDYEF
Assay: AtheNA, Ab 6.25 ug/ml
quantity measured: Athena reading (relative luminescence units)
Numbers only.

[ask] Which value of Athena reading (relative luminescence units) has been reported for CH239_4A/293i (antibody, from a related filing, V domains shown) VH: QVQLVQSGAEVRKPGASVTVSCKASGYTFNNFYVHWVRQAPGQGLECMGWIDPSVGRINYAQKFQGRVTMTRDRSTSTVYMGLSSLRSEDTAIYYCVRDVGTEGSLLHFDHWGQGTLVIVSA VL: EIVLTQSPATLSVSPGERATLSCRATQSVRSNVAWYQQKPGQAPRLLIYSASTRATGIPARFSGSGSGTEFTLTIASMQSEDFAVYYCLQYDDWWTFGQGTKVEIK in the records?
[reply] 49

Just for reference, patent US10344077 is where these values come from.
